Hi there, I'd appreciate the recorded TGI for every entry that follows.
Tested on: NCI-H226 lung
Assay: NCI tumour cell line growth inhibition, 48 h

Query: State the recorded TGI for this entry: `CCCCSC1=N/C(=C\c2ccc(N(C)C)cc2)C(=O)N1`
Result: 54.2 µM

Query: Entry under review: O=CN1N=C(c2cccc(Nc3ccnc4cc(Cl)ccc34)c2)CC1c1ccccc1 (stereo not given) . Reported TGI?
Result: > 55.7 µM

Query: What does the data say about its TGI? Entry: `Cc1ccc2c(c1)C(=O)c1c-2c(OCCCN(C)C)nc2ccccc12`
Result: 13.7 µM

Query: Reported TGI for `CC(=O)O[C@H]1C[C@@H](OC(C)=O)[C@@](C)(O)[C@@H]2[C@@H](OC(C)=O)[C@@]3(O)[C@H](/C=C(/CO)[C@H]4O[C@H]4[C@@H](OC(C)=O)[C@@]12C)OC(=O)[C@@H]3C` : what is it?
Result: > 25 µM

Query: Given `c1ccc(Nc2nn3c(CCCCCCCCc4nnc5sc(Nc6ccccc6)nn45)nnc3s2)cc1` , state its recorded TGI.
Result: > 100 µM

Query: Consider the compound shown here: `O=[N+]([O-])c1cc(F)ccc1S(=O)(=O)c1ccccc1` What is its recorded TGI?
Result: > 10 µM

Query: Would you mind telling me what TGI value was observed for CC1(C)C2CCC1C(=O)[C@@]1(C=CC(=O)CC1)C2 (stereo not given in full) ?
Result: > 100 µM

Query: # input compound: CC(C)=CC(=O)N[C@H]1CC[C@]2(C)C3CC[C@]4(C)C(C(C)N(C)C)=CCC4C3CCC2[C@H]1O (stereo not given in full) ; wanted: its TGI
Result: 25.7 µM

Query: Suppose we examine the compound Cc1cc2c(cc1C)C(=O)C1(C2)Cc2cc3c(cc2C1=O)CCC3 (stereo not given) ; what TGI value has been reported?
Result: > 100 µM

Query: // lookup TGI for `Cc1cc(OCCOCCC(F)(F)P(=O)(O)O)ccc1CCc1cnc2c(N)nc3cc(CCC(=O)O)ccc3c2c1`
Result: > 100 µM
